Reference source: ChEMBL document CHEMBL1149942

assay: Activity in calf brain microtubule protein assembly assay.; type: functional, Bos taurus

compound	Assembly
CC(=O)O[C@H]1C(=O)[C@@]2(C)[C@H]([C@H](OC(=O)c3ccccc3)[C@]3(O)C[C@H](OC(=O)[C@H](O)[C@@H](NC(=O)c4ccccc4)c4ccccc4)C(C)=C1C3(C)C)[C@]1(OC(C)=O)CO[C@@H]1C[C@@H]2O	100%
CC(=O)O[C@H]1C(=O)[C@@]2(C)C([C@H](OC(=O)c3ccccc3)[C@]3(O)C[C@H](OC(=O)[C@H](O)CNC(=O)C(C)(C)C)C(C)=C1C3(C)C)[C@]1(OC(C)=O)CO[C@@H]1C[C@@H]2O (some centres undefined)	28%
CC(=O)O[C@H]1C(=O)[C@@]2(C)C([C@H](OC(=O)c3ccccc3)[C@]3(O)C[C@H](OC(=O)[C@H](O)[C@@H](NC(=O)OCc4ccccc4)c4ccccc4)C(C)=C1C3(C)C)[C@]1(OC(C)=O)CO[C@@H]1C[C@@H]2O (some centres undefined)	94%
CC(=O)O[C@H]1C(=O)[C@@]2(C)C([C@H](OC(=O)c3ccccc3)[C@]3(O)C[C@H](OC(=O)[C@H](O)CNC(=O)C45CC6CC(CC(C6)C4)C5)C(C)=C1C3(C)C)[C@]1(OC(C)=O)CO[C@@H]1C[C@@H]2O (some centres undefined)	24%
Nc1nc2c(ncn2[C@@H]2O[C@H](COP(=O)(O)OP(=O)(O)OP(=O)(O)O)[C@@H](O)[C@H]2O)c(=O)[nH]1 [GUANOSINE TRIPHOSPHATE]	70%
CC(=O)O[C@H]1C(=O)[C@@]2(C)C([C@H](OC(=O)c3ccccc3)[C@]3(O)C[C@H](OC(=O)[C@H](O)CNC(=O)c4ccc5ccccc5c4)C(C)=C1C3(C)C)[C@]1(OC(C)=O)CO[C@@H]1C[C@@H]2O (some centres undefined)	28%
CCCCCC(=O)NC[C@@H](O)C(=O)O[C@H]1C[C@@]2(O)[C@@H](OC(=O)c3ccccc3)C3[C@](C)(C(=O)[C@H](OC(C)=O)C(=C1C)C2(C)C)[C@@H](O)C[C@H]1OC[C@@]31OC(C)=O (some centres undefined)	34%
CC(=O)O[C@H]1C(=O)[C@@]2(C)C([C@H](OC(=O)c3ccccc3)[C@]3(O)C[C@H](OC(=O)[C@H](O)CNC(=O)c4ccc(C(F)(F)F)cc4)C(C)=C1C3(C)C)[C@]1(OC(C)=O)CO[C@@H]1C[C@@H]2O (some centres undefined)	20%
CC(=O)O[C@H]1C(=O)[C@@]2(C)C([C@H](OC(=O)c3ccccc3)[C@]3(O)C[C@H](OC(=O)[C@H](O)CNC(=O)c4ccccc4)C(C)=C1C3(C)C)[C@]1(OC(C)=O)CO[C@@H]1C[C@@H]2O (some centres undefined)	60%
CC(=O)O[C@H]1C(=O)[C@@]2(C)C([C@H](OC(=O)c3ccccc3)[C@]3(O)C[C@H](OC(=O)[C@H](O)CNC(=O)c4ccc(N=[N+]=[N-])cc4)C(C)=C1C3(C)C)[C@]1(OC(C)=O)CO[C@@H]1C[C@@H]2O (some centres undefined)	25%
CC(=O)O[C@H]1C(=O)[C@@]2(C)C([C@H](OC(=O)c3ccccc3)[C@]3(O)C[C@H](OC(=O)[C@H](O)[C@@H](NC(=O)c4ccc(C(=O)c5ccccc5)cc4)c4ccccc4)C(C)=C1C3(C)C)[C@]1(OC(C)=O)CO[C@@H]1C[C@@H]2O (some centres undefined)	39%
CC(=O)O[C@@]12CO[C@@H]1C[C@H](O)[C@@]1(C)C(=O)[C@H](O)C3=C(C)[C@@H](OC(=O)[C@H](O)[C@@H](NC(=O)OC(C)(C)C)c4ccccc4)C[C@@](O)([C@@H](OC(=O)c4ccccc4)[C@H]21)C3(C)C.O.O.O	105%
CC(=O)O[C@H]1C(=O)[C@@]2(C)C([C@H](OC(=O)c3ccccc3)[C@]3(O)C[C@H](OC(=O)[C@H](O)[C@@H](NC(=O)c4ccccc4O)c4ccccc4)C(C)=C1C3(C)C)[C@]1(OC(C)=O)CO[C@@H]1C[C@@H]2O (some centres undefined)	93%
CC(=O)O[C@H]1C(=O)[C@@]2(C)C([C@H](OC(=O)c3ccccc3)[C@]3(O)C[C@H](OC(=O)[C@H](O)[C@@H](NC(=O)c4ccc(C(C)=O)cc4)c4ccccc4)C(C)=C1C3(C)C)[C@]1(OC(C)=O)CO[C@@H]1C[C@@H]2O (some centres undefined)	84%
CC(=O)O[C@H]1C(=O)[C@@]2(C)C([C@H](OC(=O)c3ccccc3)[C@]3(O)C[C@H](OC(=O)[C@H](O)[C@@H](NC(=O)c4ccc(N=[N+]=[N-])cc4)c4ccccc4)C(C)=C1C3(C)C)[C@]1(OC(C)=O)CO[C@@H]1C[C@@H]2O (some centres undefined)	90%
CC(=O)O[C@H]1C(=O)[C@@]2(C)C([C@H](OC(=O)c3ccccc3)[C@]3(O)C[C@H](OC(=O)[C@H](O)CNC(=O)OCc4ccccc4)C(C)=C1C3(C)C)[C@]1(OC(C)=O)CO[C@@H]1C[C@@H]2O (some centres undefined)	20%
CC(=O)O[C@H]1C(=O)[C@@]2(C)C([C@H](OC(=O)c3ccccc3)[C@]3(O)C[C@H](OC(=O)[C@H](O)CNC(=O)C4CCCCC4)C(C)=C1C3(C)C)[C@]1(OC(C)=O)CO[C@@H]1C[C@@H]2O (some centres undefined)	33%
CC(=O)O[C@H]1C(=O)[C@@]2(C)C([C@H](OC(=O)c3ccccc3)[C@]3(O)C[C@H](OC(=O)[C@H](O)CNC(=O)OC(C)(C)C)C(C)=C1C3(C)C)[C@]1(OC(C)=O)CO[C@@H]1C[C@@H]2O (some centres undefined)	51%
CC(=O)O[C@H]1C(=O)[C@@]2(C)C([C@H](OC(=O)c3ccccc3)[C@]3(O)C[C@H](OC(=O)[C@H](O)[C@@H](NC(=O)c4ccc(C(F)(F)F)cc4)c4ccccc4)C(C)=C1C3(C)C)[C@]1(OC(C)=O)CO[C@@H]1C[C@@H]2O (some centres undefined)	80%
